# measurement target: cynomolgus PILRA, ectopically expressed on 293 cells (cynomolgus monkey)
# Sequence (chain, as listed by the source): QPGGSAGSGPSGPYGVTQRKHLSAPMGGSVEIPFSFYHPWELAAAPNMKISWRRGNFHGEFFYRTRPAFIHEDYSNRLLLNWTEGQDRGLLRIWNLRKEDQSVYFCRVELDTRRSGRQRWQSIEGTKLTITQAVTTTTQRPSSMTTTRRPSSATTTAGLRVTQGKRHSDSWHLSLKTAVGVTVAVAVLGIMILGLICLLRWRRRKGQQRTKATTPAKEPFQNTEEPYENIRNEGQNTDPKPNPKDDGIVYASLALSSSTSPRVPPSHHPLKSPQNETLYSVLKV
# protocol: flow cytometry, 293 cells expressing target

{"columns": ["binder", "binding result"],
 "data": [
  ["D5 (antibody, V domains shown, second hybridoma campaign) VH: EVKLDETGGGLVQPGRPMKLSCVASGFTFSDYWMNWVRQSPEKGLEWVAQIRNKLYNYETYYSDSVKGRFTISRDDSKSSVYLQMNNLRAEDMGIYYCTVGLAMDYWGQGTSVTVSS VL: DIQMTQSSSSFSVSLGDRVTITCKASEDIYNRLAWYQQKPGNAPRLLISGATSLETGVPSRFSGSGSGKEYTLNITSLQTEDVATYYCQQYWSTPTFGGGTKLEIK", "no binding"],
  ["E11 (antibody, V domains shown, phage campaign) VH: QVQLVQSGAEVKKPGSSVKVSCKASGGTFSSYDISWVRQAPGQGLEWMGGIIPTFVTPKYAQKFQGRVTITADESTSTAYMELSSLRSEDTAVYYCAREGPKQLEEYYYYYMDVWGKGTTVTVSS VL: DIQMTQSPSSLSASVGDRVTITCRATQAISNSLAWYQQKPGKAPKLLIYAASYLQSGVPSRFSGSGSGTDFTLTISSLQPEDFATYYCQQAYSFPWTFGQGTKLEIK", "no binding"]
]}
